- Test system: Caco-2 cell monolayer
- experiment-notes: Transport of TMFs across Caco-2 cell monolayer, apical to basolateral
- Type: in vitro ADME, human
- assay-setup: 1 h, 300 μg/mL TMF loaded on apical side, mean ± S.D
Marks after values point to notes of the source that are not given here.
reported-metric: Transport Efficiency (%)

# example entries with known answers
>>> measured_result("COc1ccc(-c2cc(=O)c3ccc(OC)c(OC)c3o2)cc1OC [78-TMF, 3′,4′,7,8-tetramethoxyflavone]")
"30.49 ± 0.05 ^c** %"
>>> measured_result("COc1cc(OC)c2c(=O)cc(-c3ccc(OC)c(OC)c3)oc2c1 [57-TMF, 3′,4′,5,7-tetramethoxyflavone]")
"22.48 ± 3.90 ^c %"
>>> measured_result("COc1ccc2c(=O)c(O)c(-c3cc(OC)c(OC)cc3OC)oc2c1 [3H7-TMF, 3-hydroxy-2′,4′,5′,7-tetramethoxyflavone]")
"37.82 ± 0.07 ^c %"

Here's the next entry for you.
Consider the compound COc1ccc2oc(-c3cc(OC)c(OC)cc3OC)c(O)c(=O)c2c1 [3H6-TMF, 3-hydroxy-2′,4′,5′,6-tetramethoxyflavone] and give its measured Transport Efficiency (%).
25.42 ± 1.92 ^c %
